- System: T-47D breast
- Assay Summary: NCI tumour cell line growth inhibition, 48 h
Outcome Measure: GI50

Solved cases below.
Give its GI50 value. Item: "COC(=O)c1ccc2[nH]c(O)c(C(=Nc3ccc(N(C)C(=O)CN4CCN(C)CC4)cc3)c3ccc4c(c3)OCO4)c2c1"
739 nM

Moving on to "O=C1NC(=S)S/C1=C/c1ccc2c(c1)OCO2"
> 100000 nM

Moving on to "C[C@]12CCc3sc(Nc4ccc(OC(F)(F)F)cc4)nc3C1=CC[C@@H]1[C@@H]2CC[C@]2(C)C(=O)CC[C@@H]12"
2150 nM

Quick request: GI50 for each listed item, please.
1. C#CC1(O)C(COP(=O)(O)OCC(COP(=O)(O)OCC2OC(n3cc(F)c(=O)[nH]c3=O)CC2O)OCCCCCCCCCCCCCCCCCC)OC(n2ccc(N)nc2=O)C1O (stereo not given)
2. O=C(O)c1ccc(CN2CCC(CN[C@@H]3C[C@H]3c3ccccc3)CC2)cc1

1: 3720 nM; 2: > 100000 nM
